meta.source: paper PMC3461044

System: Xanthomonas axonopodis pv. glycines
Conditions: serial 2-fold dilutions, 96-well, inoculum ~10^5 CFU/mL, highest 256 µg/mL, 48 h, OD600; NDA = Non-detectable activity
No end group written: not given here.
quantity.measured: MIC, Xanthomonas axonopodis pv. glycines

Reference set, count: 8
GLNTLKKVIQGLHEVIKLVNNHA [Pseudin B, reference compound] | <2 µM
IAAAQRITSGAADIAINWAGGLHHAKK [B0CZJ3(104–130)] | NDA
FVTNSKRLAEGIEKGVGNSILIKVN [Q8KG25(327–351)] | NDA
VWTTAMEKSSAANFSMSRNQRRSSLHSL [gb|AAD22970.1|(120–148)] | NDA
FINKAGKLQSQLRTTVVAAAAFLDAFQKVA [O43312(33–62)] | 80 µM
FLSLIPHAINAVSTLVHHF [PS -2, reference compound] | 121 µM
GIGDILKNLAKAAGKAALHAVGESL [HSP-4, reference compound] | <2 µM
LRPAILVRVKGKGL [Hyposin HA-6, reference compound] | 42 µM

Task: Give the reported value of MIC, Xanthomonas axonopodis pv. glycines for this record: FKQFHFKDFNRAFGFMTRVALQAEKL [P61458(35–60)]
Output: 40 µM

Task: Name the recorded MIC, Xanthomonas axonopodis pv. glycines of the substance listed here: SLWKNLSRKISGAVKAQPDLHTLLPLPGS [Q9XEY7(120–148)]
Output: NDA

Task: Please give measured MIC, Xanthomonas axonopodis pv. glycines of the following entry: GLKDMIKNLAKEAAVKLAGAVINKFSPQPQ [Nattererin-1, reference compound]
Output: <1 µM

Task: Dear colleague, please send me the reported MIC, Xanthomonas axonopodis pv. glycines for FFFDTLKNLAGKVIGALT [Phes, reference compound] when you can.
Output: 33 µM

###

System: Xanthomonas axonopodis pv. glycines
Conditions: serial 2-fold dilutions, 96-well, inoculum ~10^5 CFU/mL, highest 256 µg/mL, 48 h, OD600; NDA = Non-detectable activity
No end group written: not given here.
quantity.measured: MIC, Xanthomonas axonopodis pv. glycines

FKALRALRLEDLRIPTSYIK [A3KLW0(117–136)] | NDA
GHRGALKDWVQAAGGAVAAFDFTTKG [Q8RW88(70–95)] | NDA
LAKRRVLTLLRQLRRVSPSS [Q7YRI0(9–28)] | <2 µM
AAAAAAAIKMLMDLVNERIMALNKKAKK [Q6TV81(25–52)] | <1 µM
GLWSTIKQKGKE [DS 01 (1–12), reference compound] | NDA

Task: Give the value of MIC, Xanthomonas axonopodis pv. glycines reported for the following: GLWSTIKQKGKEAAIAAAKAAGQAALGAL [DS 01, reference compound]
Output: <1 µM

Task: Name the recorded MIC, Xanthomonas axonopodis pv. glycines of the item GKFHQIKKMFLSVGVKVTSLKRIQFGDF [A5LDU0(184–211)] in your answer.
Output: 10 µM

Task: Give the measured MIC, Xanthomonas axonopodis pv. glycines for LVQRFHAYLHKFREAFMNVGAAAAVEGTKAA [A4HW34(187–217)]
Output: 37 µM

Task: Read the entry GVLDILKGAAKDLAGHVATKVINKI [Syphaxin, reference compound] and write its reported MIC, Xanthomonas axonopodis pv. glycines.
Output: 25 µM

Task: Look up MIC, Xanthomonas axonopodis pv. glycines of GLWQIFSSKEEGKDNSQQKSKGDQAKEL [gb|ACU24018.1|(73–101)] and report it.
Output: NDA

###

Test system: Xanthomonas axonopodis pv. glycines
Settings: serial 2-fold dilutions, 96-well, inoculum ~10^5 CFU/mL, highest 256 µg/mL, 48 h, OD600; NDA = Non-detectable activity
No end group written: not given here.
quantity.measured: MIC, Xanthomonas axonopodis pv. glycines

KAGLQFPVGRIARFLK [B4FGE3(22–37)] | NDA
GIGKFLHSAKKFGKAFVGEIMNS-NH2 [Magainin-2 amide, reference compound] | 13 µM
KLKKLLAGQKDGLLGQIAAMSDLYTKK [P94692(929–955)] | NDA
